Origin of measurements: patent US11072602B2

assaySystem: human GPR40 (Homo sapiens)
Construct: expressed in transfected cells
assayInfo: Inositol Phosphate Turnover (IP1) Assay
Format: cell-based
condition: HEK cells stably expressing human GPR40, 7500 cells per well, CisBio IP-One kit
testReadout: EC50 (nM)
Write the answer as a number in nM, unit excluded.

- molecule: "C[C@H](C(=O)O)[C@H](c1ccc2c(c1)OC(CC1CCN([C@H](C)c3cc(C(F)(F)F)ccc3C(F)(F)F)CC1)CC2)C1CC1 (single isomer, unassigned) [Example 11]"
  EC50 [nM]: 14.1

get_value(item= C[C@H](C(=O)O)[C@H](c1ccc2c(c1)OC(C1CC3CCCC(C1)N3[C@@H](C)c1cc(C(F)(F)F)ccc1C(F)(F)F)CC2)C1CC1 (mixture of isomers) , readout=EC50) returns 750

Form: molecule = C[C@H](C(=O)O)[C@H](c1ccc2c(c1)OC(CC1CCN([C@@H](C)c3cc(C(F)(F)F)ccc3C(F)(F)F)CC1)CC2)C1CC1 (mixture of isomers) ; EC50 = 22.3

----------
assaySystem: human GPR40 (Homo sapiens, UniProt O14842)
Construct: expressed in transfected cells
Sequence (O14842 whole entry): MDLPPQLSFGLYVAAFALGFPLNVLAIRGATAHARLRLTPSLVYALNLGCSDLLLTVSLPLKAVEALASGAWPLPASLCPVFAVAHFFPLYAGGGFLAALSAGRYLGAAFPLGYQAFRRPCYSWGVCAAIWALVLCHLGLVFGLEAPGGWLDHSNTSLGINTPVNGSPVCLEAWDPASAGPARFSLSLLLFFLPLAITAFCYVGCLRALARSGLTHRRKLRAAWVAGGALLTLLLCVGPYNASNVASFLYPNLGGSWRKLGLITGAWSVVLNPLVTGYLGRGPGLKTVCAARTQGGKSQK
assayInfo: Inositol Phosphate Turnover (IP1) Assay
Assay type: cell-based
condition: HEK cells stably expressing human GPR40, 7500 cells per well, CisBio IP-One kit
testReadout: EC50 (nM)
Give a bare numeral; the unit nM is implied.

- compound: "C[C@H](C(=O)O)[C@H](c1ccc2c(c1)OC(C1[C@@H]3CC[C@@H]1CN([C@@H](C)c1cc(F)ccc1C(F)(F)F)C3)CC2)C1CC1 (single isomer, unassigned) [Example 30]"
  EC50 [nM]: 453
- compound: "C[C@H](C(=O)O)[C@H](c1ccc2c(c1)OC(C1[C@@H]3CC[C@H]1CN([C@H](C)c1cc(C(F)(F)F)ccc1C(F)(F)F)C3)CC2)C1CC1 (mixture of isomers) [Example 22]"
  EC50 [nM]: 45.6
- compound: "C[C@H](C(=O)O)[C@H](c1ccc2c(c1)OC(C13CCN([C@@H](C)c4cc(F)ccc4OC(F)(F)F)C(C1)C3)CC2)C1CC1 (some centres unmarked) [Example 42]"
  EC50 [nM]: 2.09
- compound: "C[C@H](C(=O)O)[C@H](c1ccc2c(c1)OC(C1[C@@H]3COC[C@H]1CN([C@@H](C)c1cc(F)ccc1C(F)(F)F)C3)CC2)C1CC1 (single isomer, unassigned) [Example 8]"
  EC50 [nM]: 11.2

Assay human GPR40 (Homo sapiens, UniProt O14842), sample C[C@H](C(=O)O)[C@H](c1ccc2c(c1)OC(CCN(C)Cc1cc(C(F)(F)F)ccc1C(F)(F)F)CC2)C1CC1 (mixture of isomers) [Example 41] , EC50 read: 8.72

----------
assaySystem: human GPR40 (Homo sapiens)
Construct: expressed in transfected cells
assayInfo: Inositol Phosphate Turnover (IP1) Assay
Format: cell-based
condition: HEK cells stably expressing human GPR40, 7500 cells per well, CisBio IP-One kit
List of EC50 values.
Supply the numeric figure in nM, leaving out any unit text.

- molecule: "CC(C(=O)O)C(c1ccc2c(c1)OC(C1CC3CCCC(C1)N3C(C)c1cc(F)ccc1C(F)(F)F)CC2)C1CC1 (single isomer, unassigned) [Example 35]"
  quantityUnit: "nM"
  EC50: 90.9
- molecule: "C[C@H](C(=O)O)[C@H](c1ccc2c(c1)OC(C1[C@@H]3CC[C@@H]1CN([C@@H](C)c1cc(C(F)(F)F)ccc1C(F)(F)F)C3)CC2)C1CC1 (single isomer, unassigned) [Example 24]"
  quantityUnit: "nM"
  EC50: 9.66
- molecule: "CC(c1cc(F)ccc1C(F)(F)F)N1CC2CC1CC2C1CCc2ccc([C@H](C3CC3)[C@H](C)C(=O)O)cc2O1 (mixture of isomers) [Example 39]"
  quantityUnit: "nM"
  EC50: 44.1

According to the records, this molecule C[C@H](C(=O)O)[C@H](c1ccc2c(c1)OC(C1CC3C[C@@H]1CN3[C@@H](C)c1cc(F)ccc1C(F)(F)F)CC2)C1CC1 (some centres unmarked) [Example 38] displays EC50 of 10.6

Form field EC50, entry C[C@H](C(=O)O)[C@H](c1ccc2c(c1)OC(CC1CCN([C@H](C)c3cc(C(F)(F)F)ccc3C(F)(F)F)CC1)CC2)C1CC1 (single isomer, unassigned) [Example 10] : 29.3

The molecule listed as C[C@H](C(=O)O)[C@H](c1ccc2c(c1)OC(C1[C@@H]3CC[C@@H]1CN([C@@H](C)c1cc(C(F)(F)F)ccc1C(F)(F)F)C3)CC2)C1CC1 (single isomer, unassigned) [Example 25] has a reported EC50 of 67.3

According to the records, this molecule C[C@H](C(=O)O)[C@H](c1ccc2c(c1)OC(C1[C@@H]3COC[C@H]1CN([C@@H](C)c1cc(F)ccc1C(F)(F)F)C3)CC2)C1CC1 (single isomer, unassigned) [Example 7] displays EC50 of 11.2

Reported EC50 ( C[C@H](C(=O)O)[C@H](c1ccc2c(c1)OC(C1[C@@H]3CC[C@@H]1CN([C@@H](C)c1cc(F)ccc1C(F)(F)F)C3)CC2)C1CC1 (single isomer, unassigned) [Example 28] ) = 28.7

Item: C[C@H](C(=O)O)[C@H](c1ccc2c(c1)OC(C1CC3CCC(C1)N3[C@@H](C)c1cc(C(F)(F)F)ccc1C(F)(F)F)CC2)C1CC1 (some centres unmarked) [Example 13] | EC50: 11.9

Per the records, this molecule ( C[C@H](C(=O)O)[C@H](c1ccc2c(c1)OC(C1CC3CCC(C1)N3[C@H](C)c1cc(C(F)(F)F)ccc1C(F)(F)F)CC2)C1CC1 (some centres unmarked) [Example 14] ) has EC50 equal to 11.1

Per the record, C[C@H](C(=O)O)[C@H](c1ccc2c(c1)OC(C1[C@@H]3CC[C@@H]1CN([C@@H](C)c1cc(F)ccc1C(F)(F)F)C3)CC2)C1CC1 (single isomer, unassigned) [Example 27] has EC50 of 20.2
